Origin of measurements: patent US10385065B2

Test system: Staphylococcus aureus ATCC 29213
Protocol Description: MIC, broth microdilution, S. aureus ATCC 29213
Type: cell-based
Experimental Setup: ATCC 29213 / MSSA, Table 2, read-out: MIC S. aureus (MSSA) ATCC 29213 CLSI control strain
Measurement Label: MIC

Field: example entries. Status: answers known.
Compound | Measurement Label | Result
Cc1c(-c2cnc(N(C)C)nc2)ccc2c3ocnc3c(=O)n(C3CC3)c12 | MIC | 1 to 10 µg/mL
CN[C@H](CC(C)C)C(=O)N[C@H]1C(=O)N[C@@H](CC(N)=O)C(=O)N[C@H]2C(=O)N[C@H]3C(=O)N[C@H](C(=O)N[C@H](C(=O)O)c4cc(O)cc(O)c4-c4cc3ccc4O)[C@H](O)c3ccc(c(Cl)c3)Oc3cc2cc(c3O[C@@H]2O[C@H](CO)[C@@H](O)[C@H](O)[C@H]2O[C@H]2C[C@](C)(N)[C@H](O)[C@H](C)O2)Oc2ccc(cc2Cl)[C@H]1O [Vancomycin, reference compound] | MIC | < 1 µg/mL
Cc1nc2c(=O)n(C3CC3)c3c(C)c(-c4cc(F)c(C#N)cc4F)ccc3c2o1 | MIC | < 1 µg/mL

### Prompt Given the compound `O=c1c2ncoc2c2cc(F)c(-c3ccc(C(F)(F)F)nc3)cc2n1C1CC1` , what is its reported MIC?
### Response 10 to 100 µg/mL

### Prompt Thanks! And CN(C)C1CCN(c2nc3c(cc2F)c2ocnc2c(=O)n3C2CC2)C1 (centres unmarked) ?
### Response 10 to 100 µg/mL
